Reported apparent KD of K4 kissing-loop reporter values follow for various sequences
tested on: K4 kissing-loop RNA reporter; assay: apparent KD of K4 kissing-loop reporter; higher = weaker reporter binding; details: Eterna round: R107; input ligand: FMN 200 uM
Answer format: numeric, nM implied, no suffix.

item_sequence="UAAGAGGACCACUGCAAAAGUCCUCGAAUACGAGGACCGGUACGGCCGCCACUCGAUAAUUUGCAGUGAUGUUGCAAGUAAGAAU [BrourdMod 4 - Jieux - Same State Tryptophan A]" target_system="K4 kissing-loop RNA reporter" units_label=nM quantitative_result=120
item_sequence="AAUGUACAGGGAAGGAGCGUCGUCCAGUGAUGUUGGAGUUAAAUACCAGUGAUGUUGGUUAGGCAGGUAGGUCGCCCUAAAGUAG [#09 K4 Arginine B Exclusion]" target_system="K4 kissing-loop RNA reporter" units_label=nM quantitative_result=102
item_sequence="AUUAAUAACAGAGGAUAUGCAUUAUUAUUAUUUUUAAAUAAUAAAUGCAGUGAUGUUGCAUAUUAAGCAGAAGGCUGAUUUAUUU [JR_SSFMNB_Sub011]" target_system="K4 kissing-loop RNA reporter" units_label=nM quantitative_result=137
item_sequence="UUAAGGGUCCGAGGAUAUCUCCCAGUGAUGUUGGGCGAUACGGCCCUUAAGACUAAUGGUUGAAGGAGAGAAGGCGGCUCCCGAU [Edmaisle]" target_system="K4 kissing-loop RNA reporter" units_label=nM quantitative_result=146
item_sequence="GAUGGUGGCAGUGAAGUGAUGUUUCAUGAUACCAGUUUUAUAAGUAACCCUUGGCAGCAUCGUACGCAGCGUAGUGGACAUCACG [theeternabot_exclusion_KL_Theo_A_25]" target_system="K4 kissing-loop RNA reporter" units_label=nM quantitative_result=129

Tell me reported apparent KD of K4 kissing-loop reporter for UUAAUAAUUCAAGGAUAUGUUUUUUUUUUCGAGUGAUGUUCGGAAUUAAUAAAUUUAAAAGAUUAUACAGAAGGUGAUAAAUAGU [Cynwulf-mod#1] , tested with K4 kissing-loop RNA reporter.
103

---

test system: MS2 coat protein; assay: apparent KD of MS2 coat protein; designed switch direction (-1 OFF switch, 1 ON switch): -1; higher = weaker reporter binding; details: Eterna round: R95; input ligand: microRNA oligo, concentration not stated
MEASUREMENT_NAME: apparent KD of MS2 coat protein (nM)
Answer format: numeric, nM implied, no suffix.

item_sequence="GAUUAUGCGAGCUUUAGGGACAUGAGGAUCACCCAUGUUCGUCUUGUUGAUCUAGGUACGCUAACAUACCUAAAUCU [JMF 6] (puzzle: Sensor v3, turn-off variant 1)" measurement_name="apparent KD of MS2 coat protein" quantitative_result=28.3
item_sequence="GGUACUAACACGAUAGUGUUAGUACUAUAAGCUUGUGUUACAUGAGGAUCACCCAUGUCCUCAUAAGCUCGUCUUAU [Mat - Sensor v3 - Turn-off var 2 - D77] (puzzle: Sensor v3, turn-off variant 2)" measurement_name="apparent KD of MS2 coat protein" quantitative_result=50.2
item_sequence="UUUUAGAGAGGAUAUAUAUAGUGAAACAUGAGGAUCACCCAUGUAAUUAUAUGGAUGUAAAUAGAAGGCUCAUUUA [JL-ex5-3.02] (puzzle: Exclusion 5)" measurement_name="apparent KD of MS2 coat protein" quantitative_result=31.1
item_sequence="GUGGUGGGUUUUCCGAGUAACAUGAGGAUCACCCAUGUAUUAGUUUGAUGUAUCAAGCGAAUGGCUCGUCUUAUAUA [JR_SV3TOV1_Sub045] (puzzle: Sensor v3, turn-off variant 1)" measurement_name="apparent KD of MS2 coat protein" quantitative_result=14.5
item_sequence="ACUAGCUUUUUGCAUUUUAGGUUUGUUGCUUCGUAUGUAACAUGAGGAUCACCCAUGUAUUACUGAUGUCGUCGUUU [JR_SV3TOV2_Sub090] (puzzle: Sensor v3, turn-off variant 2)" measurement_name="apparent KD of MS2 coat protein" quantitative_result=16.5

What apparent KD of MS2 coat protein value was documented for this sequence, AAAAAGUGAGGAUAUGCAUAAGGACCCGGGAGGGAAAUAAAACAUGAGGAUCACCCAUGUAGAAGGCGCAAAAA [Exclss2-II] (puzzle: Exclusion 2) ?
16

What apparent KD of MS2 coat protein value was documented for this sequence, CCGGAAAUGUAGGAUAUAGGAGUCGAUAGACACCUAGAAGGGCAUACAUGAGGAUCACCCAUGUGUCCUACCGG [Fiskers Ex 6 - 80] (puzzle: Exclusion 6) ?
11.8

What apparent KD of MS2 coat protein value was documented for this sequence, AGAAAUGCCCAUGGCCACAAGCUUUCUGCUUGUCUUACUACAUGAGGAUCACCCAUGUAACAUGGGCUCCUGAUAAU [Enzainge] (puzzle: Sensor v3, turn-off variant 2) ?
10.4

What apparent KD of MS2 coat protein value was documented for this sequence, CCAGGCUGUGUGAGGAUAUGCUGGUCCUUGGAUCAGCAGAAGGCACAUGAGGAUCACCCAUGUGAAAAGCUUGG [Mat - Exclusion 4 - JL Mod - D91] (puzzle: Brourd's mod of Exclusion 4) ?
16.2

What apparent KD of MS2 coat protein value was documented for this sequence, GGUACUAACACGAAAGUGUUAGUACUAUAAGCUUGUGUUACAUGAGGAUCACCCAUGUCCUCAUAAGCUCGUCUUGU [JL-sv3-2.19 mat747 mod] (puzzle: Sensor v3, turn-off variant 2) ?
44.2

---

Reported apparent KD of K4 kissing-loop reporter values follow for various sequences
test system: K4 kissing-loop RNA reporter; test: apparent KD of K4 kissing-loop reporter; higher = weaker reporter binding; details: Eterna round: R107; input ligand: FMN 200 uM;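 also: bound reporter read as fluorescence of individual clusters on recovered sequencing chips by microscopy, with normalized cluster intensities fitted with a binding model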
Answer format: numeric, µM implied, no suffix.

The following sequences have reported results that may help.
item_sequence="UAUUUAGUGACGGCCGCCACUAUUGUGAUUUAUUUGUUUGAGUGAUGUUUUGAUGUUUGAUUUUGUAGGACCGGGUUAUGUGUUA [awscmullin]" quantitative_result=1.08
item_sequence="GCGCAUGUUAAAGGAUAUAGCAGGUGAUACAAGAAAGUGAGUGAUGUUUAUGUAGAUGAUGAUAUGUUAGAAGGUUAACAAGCGC [abcdefghijklmnop]" quantitative_result=0.693

What apparent KD of K4 kissing-loop reporter value was documented for this sequence, CGAGUGAUGUUCGUUUUUUAAUUUUUUUGACAGGAUAUGCGGAAACGCAGAAGGGUCACCUUUGAGUUAAAAGAAUUUAUUUUUU [Ex FMN A 17] ?
0.321

---

system: MS2 coat protein; assay: apparent KD of MS2 coat protein; designed switch direction (-1 OFF switch, 1 ON switch): -1; higher = weaker reporter binding; conditions: input ligand: none
Tick 1 if apparent KD of MS2 coat protein is 60 nM or greater. Tick 0 if apparent KD of MS2 coat protein is less than 60 nM.

Field: example entries. Status: answers known.
item_sequence="GCCUCGUCAGGAUAUCUCCACGUGAGCAAGGCUCACGGGCCAGAGAAGGGACUUGAGGAUCACCCAAGUAAAAC [Ritiatso] (Eterna round: R97, puzzle: Exclusion 4)" label_value=1
item_sequence="CAGCUGUGAGGAUAUACAUGAGGAUCACCCAUGUUAAGGAAGUGGUGUAUAUUGUAGUGUAGAAGGCACUUGUC [JR_Ex3_Sub026] (Eterna round: R97, puzzle: Exclusion 3)" label_value=1
item_sequence="CCGGUUCAUUAGGAUAUGCAGGUGAACGGUGCCGUAGAAGGAAUGACAUGAGGAUCACCCAUGUAGAGGAAGUG [Eternabot (L2) Solution 82] (Eterna round: R97, puzzle: Exclusion 6)" label_value=0
item_sequence="AGCCAAGCAGGAUAUAUCCGGGAUAACAUGAGGAUCACCCAUGUGACCGAUUGAUAUCCUAUAGAAGGGCUUGGGA [Mod of ViennaUCT 23 - Jieux - Exclusion 5] (Eterna round: R97, puzzle: Exclusion 5)" label_value=0

Does the reported apparent KD of MS2 coat protein for GAUCACUGAGGAUAUACACAGAUACAAAGUAUCUGACCGUGACAUGAGGAUCACCCAUGUAGAAGGCAGAGGUC [Omei Ex2 B1] (Eterna round: R97, puzzle: Exclusion 2) fall at or above the 60 nM mark?
0

---

tested on: MS2 coat protein; assay: apparent KD of MS2 coat protein; designed switch direction (-1 OFF switch, 1 ON switch): -1; higher = weaker reporter binding; details: input ligand: microRNA oligo, concentration not stated
MEASUREMENT_NAME: apparent KD of MS2 coat protein (nM)
Answer format: numeric, nM implied, no suffix.

The following sequences have reported results that may help.
item_sequence="ACAUGUAAUGUAGGAUAUUUUACACAUGAGGAUCACCCAUGUGACCGGAGGCUUUACUAUGAGUAAGAGAAGGGUAUGUACAUG [Ex NG2 #62] (Eterna round: R96, puzzle: Exclusion NG 2)" measurement_name="apparent KD of MS2 coat protein" units_label=nM quantitative_result=56.6
item_sequence="ACAUGAGGAUCACCCAUGUCAGGUUGGUUUUCUCCGGCUGUUGAGGAUAUAGUCCGGUAUCCGCGCUAGAAGGUGAGGGUUGGC [Aenatbe mod 13] (Eterna round: R96, puzzle: Exclusion NG 3)" measurement_name="apparent KD of MS2 coat protein" units_label=nM quantitative_result=54.4

Proceed to the following item.
What apparent KD of MS2 coat protein value was documented for this sequence, UCUGUUUUGCGAGGAUAUCGACCAUUCCUCUUAACAUGAGGAUCACCCAUGUGCUAAUCCUACAACGAGAAGGCGCUCAUACUC [JR_ExcNG2_Sub066] (Eterna round: R96, puzzle: Exclusion NG 2) ?
195

Reference source: the supplement of paper PMC9170038
